- Test system: MCF7
- method-description: Estrogenic activity in human MCF7 cells assessed as increase in cell proliferation incubated for 4 days by WST-8 assay
- Format: functional, cell-based
- experimental-parameters: MCF7, 96 h
Assign classes using reported EC50 values and the ranges group A = under 5 nM, group B = from 5 nM up to 50 nM, group C = 50 nM and over, please.

Solved entries (count: 8):
>>> print(df.to_string())
                                   compound  class_label
0  Oc1ccc(C(c2ccc(O)cc2)C2CCC(Br)(Br)CC2)cc1      group C
1  CC1(C)CCCC(C(c2ccc(O)cc2)c2ccc(O)cc2)C1 (stereo unspecified)      group A
2  Oc1ccc(C(c2ccc(O)cc2)C2CCCC3(CCCCC3)C2)cc1 (stereo unspecified)      group A
3   CC1(C)CCC(C(c2ccc(O)cc2)c2ccc(O)cc2)CC1      group C
4         Oc1ccc(C(c2ccc(O)cc2)C2CCCCC2)cc1      group C
5  Oc1ccc(C(c2ccc(O)cc2)C2CCCC(F)(F)C2)cc1 (stereo unspecified)      group B
6  Oc1ccc(C(c2ccc(O)cc2)C2CCCC3(C2)SCCCS3)cc1 (stereo unspecified)      group A
7  Oc1ccc(C(c2ccc(O)cc2)C2CCC(Cl)(Cl)CC2)cc1      group C

Challenge: Which of the defined bands does the recorded EC50 of Oc1ccc(C(c2ccc(O)cc2)C2CCCC(Cl)(Cl)C2)cc1 (stereo unspecified) sit within?
Response given: group A

Challenge: Which of the defined bands does the recorded EC50 of Oc1ccc(C(c2ccc(O)cc2)C2CCC(F)(F)CC2)cc1 sit within?
Response given: group B

* * *

- target-of-assay: Estrogen receptor beta (Homo sapiens)
- method-description: Displacement of [6,7-3H]17 beta-estradiol from human recombinant ER beta assessed as relative binding affinity incubated for 18 hrs at 4 degC by radiometric binding assay relative to estradiol
Assign classes using reported RBA values and the ranges low class: < 4%; middle class: ≥ 4% and < 20%; high class: ≥ 20%, please.

Solved entries (count: 3):
>>> df
                                   compound   class_label
0  Oc1ccc(C(c2ccc(O)cc2)C2CCCC3(C2)SCCCS3)cc1 (stereo not drawn)  middle class
1   CC1(C)CCC(C(c2ccc(O)cc2)c2ccc(O)cc2)CC1     low class
2  CC1(C)CC(C(c2ccc(O)cc2)c2ccc(O)cc2)CC(C)(C)C1    high class

API: the following record is the query input.
Challenge: Which of the defined bands does the recorded RBA of Oc1ccc(C(c2ccc(O)cc2)C2CCCC3(CCCCC3)C2)cc1 (stereo not drawn) sit within?
Response given: high class

* * *

Below is a list of entries, each paired with its recorded Emax value.
- Tested on: MCF7
- method-description: Estrogenic activity in human MCF7 cells assessed as increase in cell proliferation incubated for 4 days by WST-8 assay relative to estradiol
- Assay type: functional
- experimental-parameters: MCF7, 96 h
Respond numerically; units are % and should not be typed.

# count of solved cases: 3
                                   molecule  readout_type  value_observed
0          Oc1ccc(C(c2ccc(O)cc2)C2CCCC2)cc1          Emax              69
1  CC1(C)CCCC(C(c2ccc(O)cc2)c2ccc(O)cc2)C1 (stereo not drawn)          Emax              74
2   Oc1ccc(C(c2ccc(O)cc2)C2CCC(F)(F)CC2)cc1          Emax              80

Challenge: Return Emax for the following molecule: Oc1ccc(C(c2ccc(O)cc2)C2CCC3(CC2)OCCO3)cc1
Response given: 22

Challenge: Return Emax for the following molecule: Oc1ccc(C(c2ccc(O)cc2)C2CCCC3(CCCCC3)C2)cc1 (stereo not drawn)
Response given: 74

Challenge: Return Emax for the following molecule: Oc1ccc(C(c2ccc(O)cc2)C2CCCC(Cl)(Cl)C2)cc1 (stereo not drawn)
Response given: 70

* * *

- Species: Homo sapiens
- method-description: Ratio of RBA for human recombinant ER beta to RBA for human recombinant ER alpha
Below is a list of entries, each paired with its recorded Ratio value.
Answer with a number only.

>>> df
                                   molecule  value_observed
0  CC1(C)CCCC(C(c2ccc(O)cc2)c2ccc(O)cc2)C1 (stereo not drawn)             0.3

Challenge: Return Ratio for the following molecule: CC1(C)CCC(C(c2ccc(O)cc2)c2ccc(O)cc2)CC1
Response given: 1.2

Challenge: Return Ratio for the following molecule: Oc1ccc(C(c2ccc(O)cc2)C2CCC(Br)(Br)CC2)cc1
Response given: 0.2

Challenge: Return Ratio for the following molecule: Oc1ccc(C(c2ccc(O)cc2)C2CCCC3(C2)SCCCS3)cc1 (stereo not drawn)
Response given: 0.2

Challenge: Return Ratio for the following molecule: Oc1ccc(C(c2ccc(O)cc2)C2CCCC(F)(F)C2)cc1 (stereo not drawn)
Response given: 0.7

Challenge: Return Ratio for the following molecule: Oc1ccc(C(c2ccc(O)cc2)C2CCCC3(CCCCC3)C2)cc1 (stereo not drawn)
Response given: 1.3

* * *

- target-of-assay: Estrogen receptor (Homo sapiens)
- method-description: Displacement of [6,7-3H]17 beta-estradiol from human recombinant ER alpha assessed as relative binding affinity incubated for 18 hrs at 4 degC by radiometric binding assay relative to estradiol
readout-type: RBA (%)
Respond numerically; units are % and should not be typed.

Challenge: Under Estrogen receptor (Homo sapiens), report RBA for Oc1ccc(C(c2ccc(O)cc2)C2CCC(Cl)(Cl)CC2)cc1
Response given: 0.662

Challenge: Under Estrogen receptor (Homo sapiens), report RBA for Oc1ccc(C(c2ccc(O)cc2)C2CCCC3(CCCCC3)C2)cc1 (stereo not drawn)
Response given: 21.9

Challenge: Under Estrogen receptor (Homo sapiens), report RBA for Oc1ccc(C(c2ccc(O)cc2)C2CCCC2)cc1
Response given: 4.61

Challenge: Under Estrogen receptor (Homo sapiens), report RBA for Oc1ccc(C(c2ccc(O)cc2)C2CCC(Br)(Br)CC2)cc1
Response given: 0.957

* * *

Below is a list of entries, each paired with its recorded RBA value.
- target-of-assay: Estrogen receptor beta (Homo sapiens)
- method-description: Displacement of [6,7-3H]17 beta-estradiol from human recombinant ER beta assessed as relative binding affinity incubated for 18 hrs at 4 degC by radiometric binding assay relative to estradiol
Answers without a unit are incomplete; give the number and then its unit.

                                   compound  value_observed
0  Oc1ccc(C(c2ccc(O)cc2)C2CCCC(F)(F)C2)cc1 (centres undefined)           4.29%

Challenge: Under Estrogen receptor beta (Homo sapiens), report RBA for CC1(C)CCCC(C(c2ccc(O)cc2)c2ccc(O)cc2)C1 (centres undefined)
Response given: 30.7%

Challenge: Under Estrogen receptor beta (Homo sapiens), report RBA for Oc1ccc(C(c2ccc(O)cc2)C2CCC(Cl)(Cl)CC2)cc1
Response given: 0.158%

Challenge: Under Estrogen receptor beta (Homo sapiens), report RBA for Oc1ccc(C(c2ccc(O)cc2)C2CCC(Br)(Br)CC2)cc1
Response given: 0.18%

Challenge: Under Estrogen receptor beta (Homo sapiens), report RBA for Oc1ccc(C(c2ccc(O)cc2)C2CCC3(CC2)OCCO3)cc1
Response given: 0.219%

Challenge: Under Estrogen receptor beta (Homo sapiens), report RBA for Oc1ccc(C(c2ccc(O)cc2)C2CCCC(Cl)(Cl)C2)cc1 (centres undefined)
Response given: 15.7%

Challenge: Under Estrogen receptor beta (Homo sapiens), report RBA for Oc1ccc(C(c2ccc(O)cc2)C2CCCCC2)cc1
Response given: 15.5%

Challenge: Under Estrogen receptor beta (Homo sapiens), report RBA for Oc1ccc(C(c2ccc(O)cc2)C2CCCC2)cc1
Response given: 13.7%

Challenge: Under Estrogen receptor beta (Homo sapiens), report RBA for Oc1ccc(C(c2ccc(O)cc2)C2CCC(F)(F)CC2)cc1
Response given: 3.93%

* * *

- System: MCF7
- method-description: Estrogenic activity in human MCF7 cells assessed as increase in cell proliferation incubated for 4 days by WST-8 assay relative to estradiol
- Type: functional
- experimental-parameters: MCF7, 96 h
readout-type: Emax (%)
Respond numerically; units are % and should not be typed.

# count of solved cases: 3
>>> print(df.to_string())
                                   compound  readout_type  uom  value_observed
0  Oc1ccc(C(c2ccc(O)cc2)C2CCCC(F)(F)C2)cc1 (configuration not stated)          Emax    %              58
1  Oc1ccc(C(c2ccc(O)cc2)C2CCCC3(C2)SCCCS3)cc1 (configuration not stated)          Emax    %              80
2  Oc1ccc(C(c2ccc(O)cc2)C2CCC(Cl)(Cl)CC2)cc1          Emax    %              78

Challenge: Return Emax for the following compound: Oc1ccc(C(c2ccc(O)cc2)C2CCC(Br)(Br)CC2)cc1
Response given: 64

Challenge: Return Emax for the following compound: CC1(C)CC(C(c2ccc(O)cc2)c2ccc(O)cc2)CC(C)(C)C1
Response given: 32

Challenge: Return Emax for the following compound: CC1(C)CCC(C(c2ccc(O)cc2)c2ccc(O)cc2)CC1
Response given: 72

Challenge: Return Emax for the following compound: Oc1ccc(C(c2ccc(O)cc2)C2CCCCC2)cc1
Response given: 79
